- TARGET OR SYSTEM: Disintegrin and metalloproteinase domain-containing protein 10 (Homo sapiens, UniProt O14672)
- Sequence (O14672 whole entry): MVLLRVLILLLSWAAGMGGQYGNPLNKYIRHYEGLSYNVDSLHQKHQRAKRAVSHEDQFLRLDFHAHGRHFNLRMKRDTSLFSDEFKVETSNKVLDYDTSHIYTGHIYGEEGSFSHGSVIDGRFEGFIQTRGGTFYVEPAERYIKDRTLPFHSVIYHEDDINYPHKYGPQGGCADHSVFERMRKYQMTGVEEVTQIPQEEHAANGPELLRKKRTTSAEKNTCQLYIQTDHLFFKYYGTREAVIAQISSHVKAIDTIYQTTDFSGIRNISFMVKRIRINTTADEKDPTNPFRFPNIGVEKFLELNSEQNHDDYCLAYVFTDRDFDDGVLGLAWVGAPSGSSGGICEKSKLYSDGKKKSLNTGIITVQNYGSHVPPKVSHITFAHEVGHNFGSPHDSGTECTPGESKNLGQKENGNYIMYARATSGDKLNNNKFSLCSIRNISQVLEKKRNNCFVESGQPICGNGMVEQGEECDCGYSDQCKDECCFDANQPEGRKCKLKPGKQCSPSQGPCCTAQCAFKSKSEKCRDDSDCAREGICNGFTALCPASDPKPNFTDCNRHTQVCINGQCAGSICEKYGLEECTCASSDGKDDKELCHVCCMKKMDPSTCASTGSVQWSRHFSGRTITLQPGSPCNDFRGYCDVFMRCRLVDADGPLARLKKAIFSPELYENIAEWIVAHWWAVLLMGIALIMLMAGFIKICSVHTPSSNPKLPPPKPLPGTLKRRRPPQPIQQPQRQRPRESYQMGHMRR
# label = 1 (yes) if IC50 < 40 nM else 0 (no)

| COMPOUND | CLASS LABEL |
| --- | --- |
| O=C(NO)[C@H]1CC(OC(=O)N2CCCC2)CN[C@@H]1C(=O)N1Cc2ccccc2C1 (some centres undefined) | 0 (no) |
| CC(C)OC(=O)N(C)C1CN[C@H](C(=O)N2CC=C(c3ccccc3)CC2)[C@@H](C(=O)NO)C1 (some centres undefined) | 1 (yes) |
| O=C(NO)[C@H]1C[C@@H](OC(=O)N2CCCC2)CN[C@@H]1C(=O)N1CC=C(c2ccccc2)CC1 | 0 (no) |
| O=C(NO)[C@H]1C[C@H](OC(=O)N2CCCC2)CN[C@@H]1C(=O)N1CCN(c2ccccc2)CC1 | 1 (yes) |
| CN1C[C@@H](OC(=O)N2CCCCC2)C[C@H](C(=O)NO)[C@H]1C(=O)N1CCN(c2ccccc2)CC1 | 1 (yes) |
| CN1C[C@@H](OC(=O)N2CCC(F)(F)C2)C[C@H](C(=O)NO)[C@H]1C(=O)N1CCN(c2ccccc2)CC1 | 0 (no) |

# check: IC50 < 40 nM for O=C(NO)[C@H]1CC(CC(=O)N2CCCC2)CN[C@@H]1C(=O)N1CC=C(c2ccccc2)CC1 (some centres undefined)
1 (yes)

# check: IC50 < 40 nM for "O=C(NO)[C@H]1C[C@H](OC(=O)N2CCCC2)CN[C@@H]1C(=O)N1CCC(c2ccccc2)CC1"
0 (no)

# check: IC50 < 40 nM for CN(C(=O)c1ccccc1)C1CN[C@H](C(=O)N2CC=C(c3ccccc3)CC2)[C@@H](C(=O)NO)C1 (some centres undefined)
1 (yes)

# check: IC50 < 40 nM for CC(C)C(=O)N(C)C1CN[C@H](C(=O)N2CC=C(c3ccccc3)CC2)[C@@H](C(=O)NO)C1 (some centres undefined)
1 (yes)

# check: IC50 < 40 nM for "O=C(NO)[C@H]1C[C@H](OC(=O)N2CCCC2)CN[C@@H]1C(=O)N1CC=C(c2ccccc2)C1"
0 (no)

# check: IC50 < 40 nM for CC(C)C(=O)N(C)C1CN[C@H](C(=O)N2CC[C@H](c3ccccc3)C2)[C@@H](C(=O)NO)C1 (some centres undefined)
0 (no)

# check: IC50 < 40 nM for CN(C(=O)c1ccccc1)C1CN[C@H](C(=O)N2CC[C@H](c3ccccc3)C2)[C@@H](C(=O)NO)C1 (some centres undefined)
0 (no)

# check: IC50 < 40 nM for "CN1C[C@@H](OC(=O)N2CCCCCC2)C[C@H](C(=O)NO)[C@H]1C(=O)N1CCN(c2ccccc2)CC1"
1 (yes)

# check: IC50 < 40 nM for "CN1C[C@@H](OC(=O)N2CCCCCCC2)C[C@H](C(=O)NO)[C@H]1C(=O)N1CCN(c2ccccc2)CC1"
1 (yes)

# check: IC50 < 40 nM for O=C(NO)[C@H]1CC(CC(=O)N2CCCC2)CN[C@@H]1C(=O)N1CC[C@H](c2ccccc2)C1 (some centres undefined)
1 (yes)

# check: IC50 < 40 nM for "CN1C[C@@H](OC(=O)N2CCCC2)C[C@H](C(=O)NO)[C@H]1C(=O)N1CCN(c2ccccc2)CC1"
1 (yes)

# check: IC50 < 40 nM for O=C(NO)[C@H]1CC(OC(=O)N2CCCC2)CN[C@@H]1C(=O)N1CC=C(c2ccccc2)CC1 (some centres undefined)
1 (yes)

# check: IC50 < 40 nM for "CN1C[C@@H](OC(=O)N2CCC2)C[C@H](C(=O)NO)[C@H]1C(=O)N1CCN(c2ccccc2)CC1"
1 (yes)

----------
Listed here are compounds together with their documented IC50.
- TARGET OR SYSTEM: UniProt:P08253
- Sequence (P08253 whole entry): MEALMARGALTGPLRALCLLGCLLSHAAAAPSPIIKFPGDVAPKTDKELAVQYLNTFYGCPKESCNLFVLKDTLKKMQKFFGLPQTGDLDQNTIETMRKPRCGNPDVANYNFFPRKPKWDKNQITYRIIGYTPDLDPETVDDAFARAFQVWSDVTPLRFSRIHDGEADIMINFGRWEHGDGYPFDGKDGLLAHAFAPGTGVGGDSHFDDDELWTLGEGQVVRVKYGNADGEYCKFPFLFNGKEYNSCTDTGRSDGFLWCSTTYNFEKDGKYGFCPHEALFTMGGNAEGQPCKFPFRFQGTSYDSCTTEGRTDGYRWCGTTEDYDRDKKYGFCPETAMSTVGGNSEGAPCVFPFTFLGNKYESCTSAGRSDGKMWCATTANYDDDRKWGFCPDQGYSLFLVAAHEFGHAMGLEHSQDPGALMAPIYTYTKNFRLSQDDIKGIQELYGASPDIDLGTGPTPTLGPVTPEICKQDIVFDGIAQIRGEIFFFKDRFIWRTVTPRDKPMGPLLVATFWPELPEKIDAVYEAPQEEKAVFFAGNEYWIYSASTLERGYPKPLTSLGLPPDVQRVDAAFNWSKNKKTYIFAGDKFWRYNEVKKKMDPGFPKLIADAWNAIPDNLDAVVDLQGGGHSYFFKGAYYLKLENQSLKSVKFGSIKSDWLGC

| COMPOUND | TARGET OR SYSTEM | IC50 |
| --- | --- | --- |
| CN1C[C@@H](OC(=O)N2CCCCCC2)C[C@H](C(=O)NO)[C@H]1C(=O)N1CCN(c2ccccc2)CC1 | UniProt:P08253 | 843 nM |

# return IC50 of NCCCCNC(=O)CC1CN[C@H](C(=O)N2CCC(c3ccccc3)C2)[C@@H](C(=O)NO)C1 (stereo partly drawn) (system: UniProt:P08253)
1660 nM

# return IC50 of "COC(=O)N1C[C@@H](OC(=O)N2CCCC2)C[C@H](C(=O)NO)[C@H]1C(=O)N1CCN(c2ccccc2)CC1" (system: UniProt:P08253)
613 nM

# return IC50 of CC(C)C(=O)N(C)C1CN[C@H](C(=O)N2CC[C@H](c3ccccc3)C2)[C@@H](C(=O)NO)C1 (stereo partly drawn) (system: UniProt:P08253)
502 nM

----------
- TEST NAME: Permeability across human Caco-2 cells
- Type: ADME, cell-based
MEASUREMENT LABEL: Papp (×10⁻⁶ cm/s)
Just the number please, in ×10⁻⁶ cm/s, no unit attached.

Read off the recorded Papp for "CN1C[C@@H](OC(=O)N2CCCCC2)C[C@H](C(=O)NO)[C@H]1C(=O)N1CCN(c2ccccc2)CC1"
0.9

----------
- TARGET OR SYSTEM: Disintegrin and metalloproteinase domain-containing protein 10 (Homo sapiens, UniProt O14672)
- Sequence (O14672 whole entry): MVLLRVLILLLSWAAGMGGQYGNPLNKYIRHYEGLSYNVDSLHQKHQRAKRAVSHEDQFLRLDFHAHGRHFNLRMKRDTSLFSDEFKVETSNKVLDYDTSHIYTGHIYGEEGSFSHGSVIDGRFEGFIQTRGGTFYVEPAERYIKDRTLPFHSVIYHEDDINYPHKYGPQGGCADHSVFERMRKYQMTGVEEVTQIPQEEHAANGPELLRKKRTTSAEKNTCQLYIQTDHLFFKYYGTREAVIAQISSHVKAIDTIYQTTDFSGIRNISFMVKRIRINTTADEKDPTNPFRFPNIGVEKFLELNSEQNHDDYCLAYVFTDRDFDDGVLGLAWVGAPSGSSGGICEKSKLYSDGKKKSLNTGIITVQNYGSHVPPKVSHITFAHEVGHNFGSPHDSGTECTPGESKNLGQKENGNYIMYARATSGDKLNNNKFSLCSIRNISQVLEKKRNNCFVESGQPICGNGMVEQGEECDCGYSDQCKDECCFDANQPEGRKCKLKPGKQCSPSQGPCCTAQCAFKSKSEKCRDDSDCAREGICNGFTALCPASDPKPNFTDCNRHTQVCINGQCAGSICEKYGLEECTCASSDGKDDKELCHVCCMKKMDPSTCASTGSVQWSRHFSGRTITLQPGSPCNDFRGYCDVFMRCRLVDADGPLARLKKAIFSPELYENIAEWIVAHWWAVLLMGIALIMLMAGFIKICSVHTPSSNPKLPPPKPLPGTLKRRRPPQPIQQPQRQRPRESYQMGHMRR
Listed here are compounds together with their documented pIC50.
Hey, just a heads up that pIC50 is the negative log base 10 of the concentration in molar.

Reference set (4 entries):
| COMPOUND | READOUT NUMBER |
| --- | --- |
| NCCCCNC(=O)CC1CN[C@H](C(=O)N2CCC(c3ccccc3)C2)[C@@H](C(=O)NO)C1 (stereo not given in full) | 6.79 |
| CN(C)C(=O)O[C@H]1C[C@H](C(=O)NO)[C@@H](C(=O)N2CCN(c3ccccc3)CC2)N(C)C1 | 7.24 |
| O=C(NO)[C@H]1CC(OC(=O)N2CCCC2)CN[C@@H]1C(=O)N1CC[C@H](c2ccccc2)C1 (stereo not given in full) | 7.08 |
| CN1C[C@@H](OC(=O)N2CC=CC2)C[C@H](C(=O)NO)[C@H]1C(=O)N1CCN(c2ccccc2)CC1 | 7.52 |

As a next step, examine the compound that follows.
Read off the recorded pIC50 for "COC(=O)N1C[C@@H](OC(=O)N2CCCC2)C[C@H](C(=O)NO)[C@H]1C(=O)N1CCN(c2ccccc2)CC1"
7.70
